- test_name: Human HepG2 cell viability assay in 384 well format
- Type: toxicity, cell-based
- Parameters: dose 125 nL, time 70.5 hour; concentration not given beside the values
- conditions: HepG2 cells, read-out: Inhibition
readout: cytotoxicity at 70.5 h (%)

- compound: "Cc1ccccc1C(=O)N1C[C@@H]2OCCN(c3ncccn3)[C@@H]2C1"
  numeric_value: 17.4
- compound: "CN(Cc1ccccc1NCc1cccnc1)C(=O)c1cccs1"
  numeric_value: -2.02
- compound: "CCN1CCN2CCCN(S(=O)(=O)c3ccc(S(C)(=O)=O)cc3)C2C1=O (stereo not drawn)"
  numeric_value: -7.94
- compound: "COc1ccccc1-c1ccc(C(=O)N2C[C@H]3CC[C@@H]2CN(C)C3)cc1"
  numeric_value: -8.1
- compound: "O=C(NCc1cc[nH]n1)NCC(O)c1ccc(F)cc1F (stereo not drawn)"
  numeric_value: -9.36
- compound: "O=C(C1CCC1)N1C[C@@H](c2ccsc2)[C@@H]2CN(C3CCCC3)CC[C@@H]21"
  numeric_value: -3.74
- compound: "Cc1nc(C)n(C2CCCN(C(=O)c3ccc(O)nc3)C2)n1 (stereo not drawn)"
  numeric_value: -5.29
- compound: "CN(C)C(=O)CN1C(=O)CCC12CCN(Cc1ccc(F)cc1)CC2"
  numeric_value: 5.3
- compound: "CC(C)NC(=O)N1CCC(c2nccn2C(C)C)CC1"
  numeric_value: -3.22
- compound: "N#Cc1cccc(N2CCCC3(C2)CN(c2ncccn2)CCO3)n1 (stereo not drawn)"
  numeric_value: -6.81
- compound: "O=C1NCCCCC1Sc1nnc(-c2cccnc2)n1C1CC1 (stereo not drawn)"
  numeric_value: -5.84
- compound: "CCC(CC)NC(=O)c1ccc2nnc(C3CCN(S(C)(=O)=O)C3)n2c1 (stereo not drawn)"
  numeric_value: 6.79
- compound: "COCCN1CC[C@@H](O)[C@@H]1Cc1ccccc1"
  numeric_value: -16.9
- compound: "Nc1nccc(C2CCCN2CCc2ccccc2)n1 (stereo not drawn)"
  numeric_value: -1.57
- compound: "COCCCN1C(=O)CC[C@H]2CN(Cc3ccc4occc4c3)CC[C@H]21"
  numeric_value: 26.4
- compound: "CN1CCC(CCc2ccnc(Nc3cnccn3)c2)CC1"
  numeric_value: -4.49
- compound: "O=S(=O)(NCc1cccnc1OC1CCCC1)N1CCOCC1"
  numeric_value: -10.2
- compound: "Cc1nn(C)cc1-c1nn2c(C(F)(F)F)nnc2s1"
  numeric_value: -9.41
- compound: "COc1cccc(COCC(=O)NC(C(N)=O)c2ccccc2F)c1 (stereo not drawn)"
  numeric_value: 12
- compound: "CC[C@@H]1N(Cc2ccsc2)CCC[C@]12CCC(=O)N2C"
  numeric_value: 18.9
- compound: "COc1ccc(C2CC(=O)Nc3c2cnn3C2CCCC2)cc1 (stereo not drawn)"
  numeric_value: -11.1
- compound: "CN(Cc1nccn1C)C1CCN(CCc2ccccn2)CC1"
  numeric_value: 0.568
- compound: "O=C1CCCN1Cc1ncn2c1CN(C(=O)Cc1ccccc1)CCC2"
  numeric_value: 0.61
- compound: "Cc1cc(NCC2(O)CCOCC2)nc2ccccc12"
  numeric_value: -8.29
- compound: "COc1ccccc1N1CCC(CNCc2ccc(C#N)cc2)C1 (stereo not drawn)"
  numeric_value: 2.02
- compound: "COCCC(=O)N1CC2(CCN(Cc3ccoc3)C2)C1"
  numeric_value: 33.7
- compound: "CC(C)c1nc(C2CCCN(C(=O)c3ccc4[nH]cnc4c3)C2)no1 (stereo not drawn)"
  numeric_value: -18.2
- compound: "Cc1nn(C)c2cn(C(C)C(=O)NCc3ccccn3)nc12 (stereo not drawn)"
  numeric_value: -11.2
- compound: "O=C(NCc1cnc2n1CCN(Cc1ccsc1)CC2)C1CCC1"
  numeric_value: -10.8
- compound: "OC(CN1CCN(Cc2ccccc2)CC1)C1CC1 (stereo not drawn)"
  numeric_value: -10.4
- compound: "CNS(=O)(=O)CCNC(=O)[C@@]12CNC[C@@H]1CN(C1CCCC1)C2"
  numeric_value: -0.951
- compound: "O=C1CCC2(CCCN(Cc3nnc(C4CC4)o3)C2)CN1CCO (stereo not drawn)"
  numeric_value: 3.23
- compound: "CCCc1nc(C)c(C(=O)NCCN2CCCCC2)s1"
  numeric_value: -1.37
- compound: "Nc1nc(N2CCCC(COc3ccc(F)cc3)C2)c2nc[nH]c2n1 (stereo not drawn)"
  numeric_value: -7.35
- compound: "CC(C)CN1CCC(NCCNc2cccnc2)CC1"
  numeric_value: -17.2
- compound: "CC(NC(=O)N1CCN(c2ccc(Cl)cc2)CC1)C(=O)N1CCSCC1 (stereo not drawn)"
  numeric_value: -12.6
- compound: "CCS(=O)(=O)N1CCc2nnc(CN(C)C(C)C)n2CC1"
  numeric_value: 19.5
- compound: "c1ccc2c(c1)OCCCC2NCc1nnc2n1CCCCC2 (stereo not drawn)"
  numeric_value: -2.04
- compound: "COCCc1noc(CN2CCCc3cccc(OC)c32)n1"
  numeric_value: -4.64
- compound: "O=C(O)c1nnn(-c2cccc(C(F)(F)F)c2)c1C1CC1"
  numeric_value: -3.12
- compound: "O=C1CCOCCN1Cc1ccc(C(F)(F)F)c(F)c1"
  numeric_value: 14.1
- compound: "Cc1nc(C2CCN2c2ncccn2)cc(N(C)C)n1 (stereo not drawn)"
  numeric_value: -8.86
- compound: "O=c1[nH]c(CCN2CCCC(Cn3cncn3)C2)nc2ccccc12 (stereo not drawn)"
  numeric_value: -0.545
- compound: "COCCN1CCOCC12CCN(c1cnccn1)CC2"
  numeric_value: -6.94
- compound: "COC(=O)c1ccc(Cn2nc(C)cc2C)c(OC)c1"
  numeric_value: 2.29
- compound: "O=C(NC1CC1)N1CCCC2(CCNC2=O)C1 (stereo not drawn)"
  numeric_value: -3.68
- compound: "Cc1cccc(CN2C[C@@H]3CN(C(=O)c4ccnnc4)C[C@@H]3C2=O)c1"
  numeric_value: -2.38
- compound: "COC(=O)C(C)(C)S(=O)(=O)c1ccc(Br)cc1"
  numeric_value: -1.38
